target: EGFR L858R/T790M/C797S (Homo sapiens, UniProt P00533, C797S/L858R/T790M); experiment: Biochemical EGFR kinase assay (Lance Ultra TR-FRET), triple mutant L858R/T790M/C797S; conditions: Km ATP; read-out: IC50 L858R/T790M/C797S (nM) Km ATP
Sequence (P00533 25-1210 T790M/C797S/L858R): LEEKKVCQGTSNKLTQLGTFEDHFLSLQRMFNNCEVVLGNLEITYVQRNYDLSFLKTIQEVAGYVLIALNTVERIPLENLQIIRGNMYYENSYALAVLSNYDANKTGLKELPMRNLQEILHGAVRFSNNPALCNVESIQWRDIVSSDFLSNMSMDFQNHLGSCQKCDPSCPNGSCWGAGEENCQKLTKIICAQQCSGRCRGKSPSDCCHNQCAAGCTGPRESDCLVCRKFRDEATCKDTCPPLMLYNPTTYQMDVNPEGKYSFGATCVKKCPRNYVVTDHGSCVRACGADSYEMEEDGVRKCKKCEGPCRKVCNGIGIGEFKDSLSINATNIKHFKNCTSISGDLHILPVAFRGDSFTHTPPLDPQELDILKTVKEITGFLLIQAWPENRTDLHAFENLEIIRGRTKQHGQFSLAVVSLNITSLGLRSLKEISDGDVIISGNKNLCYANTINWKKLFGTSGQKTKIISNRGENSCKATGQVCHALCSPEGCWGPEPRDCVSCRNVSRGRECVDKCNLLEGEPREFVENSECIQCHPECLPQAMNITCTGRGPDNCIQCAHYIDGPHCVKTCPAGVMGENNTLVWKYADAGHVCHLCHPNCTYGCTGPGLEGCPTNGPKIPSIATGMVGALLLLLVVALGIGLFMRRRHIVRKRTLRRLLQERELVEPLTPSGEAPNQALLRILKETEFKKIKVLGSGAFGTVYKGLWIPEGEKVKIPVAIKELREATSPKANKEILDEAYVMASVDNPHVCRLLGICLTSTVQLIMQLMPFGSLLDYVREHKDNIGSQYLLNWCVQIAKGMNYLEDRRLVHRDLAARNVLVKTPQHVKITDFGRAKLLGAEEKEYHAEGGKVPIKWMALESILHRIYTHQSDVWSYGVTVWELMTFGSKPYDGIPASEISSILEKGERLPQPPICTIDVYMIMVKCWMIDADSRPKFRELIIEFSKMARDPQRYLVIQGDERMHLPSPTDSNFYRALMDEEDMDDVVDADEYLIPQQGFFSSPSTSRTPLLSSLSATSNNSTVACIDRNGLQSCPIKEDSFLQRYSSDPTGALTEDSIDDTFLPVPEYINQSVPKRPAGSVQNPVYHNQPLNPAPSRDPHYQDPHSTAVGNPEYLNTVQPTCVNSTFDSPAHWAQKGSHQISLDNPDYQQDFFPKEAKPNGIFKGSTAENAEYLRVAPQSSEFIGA
measured_quantity: IC50 (nM)
Please state the figure in nM; there is no need to write the unit.

Look up IC50 with EGFR L858R/T790M/C797S (Homo sapiens, UniProt P00533, C797S/L858R/T790M) for this molecule: Cn1cc(C#Cc2cc(Nc3ccnc(-c4cnn(S(=O)(=O)C5CC5)c4)n3)ncc2-c2cnn(C3CC3)c2)cn1
5.9

What about this molecule? O=S(=O)(C1CC1)n1cc(-c2nccc(Nc3cc(NC4CCC(F)(CO)CC4)c(-c4cc5n(n4)CCCC5)cn3)n2)cn1 (stereo not shown)
0.4

Please answer likewise for O=S(=O)(C1CC1)n1cc(-c2nccc(Nc3cc(N[C@H]4CC[C@@H](CO)CC4)c(-c4ccn(C5COC5)n4)cn3)n2)cn1
0.1

Also O=S(=O)(C1CC1)n1cc(-c2nccc(Nc3cc(NC4CCCCC4O)c(-c4ccn(C(F)F)n4)cn3)n2)cn1 (stereo not shown) ?
0.8

One more molecule: COCCn1cc(-c2nccc(Nc3cc(N[C@H]4CC[C@@](C)(O)CC4)c(-c4ccn(C(F)F)n4)cn3)n2)cn1
0.1

Please do the same for Cn1ccc(-c2cnc(Nc3ccnc(-c4cnn(S(=O)(=O)C5CC5)c4)n3)cc2N[C@H]2CC[C@@H](N(C)C)CC2)n1 as well.
0.1

COCn1ccc(-c2cnc(Nc3ccnc(-c4cnn(S(=O)(=O)C5CC5)c4)n3)cc2NC(C)C)n1 , same question.
0.3

Also need CN(C)C[C@H]1C[C@H](CNc2cc(Nc3ccnc(-c4cnn(S(=O)(=O)C5CC5)c4)n3)ncc2-c2ccn(CC(F)F)n2)C1 , thanks.
0.1

And what about the molecule Cn1ccc(-c2cnc(Nc3ccnc(-c4cnn(S(=O)(=O)C5CC5)c4)n3)cc2NCC2(C)CCC(O)CC2)n1 (stereo not shown) ?
0.7

Now this one: Cn1nc(-c2cnc(Nc3ccnc(-c4cnn(S(=O)(=O)C5CC5)c4)n3)cc2N[C@H]2CC[C@@H](CO)CC2)cc1C(F)(F)F
0.9

---

I'd be grateful if you could share measured IC50 for these entries.
target: EGFR del19/T790M/C797S (Homo sapiens, UniProt P00533, C797S/DEL746-750/T790M); experiment: Biochemical EGFR kinase assay (Lance Ultra TR-FRET), triple mutant del19/T790M/C797S; conditions: Km ATP; read-out: IC50 del19/T790M/C797S (nM) Km ATP
Sequence (P00533 with tags, fused parts or gaps DEL746-750/T790M/C797S): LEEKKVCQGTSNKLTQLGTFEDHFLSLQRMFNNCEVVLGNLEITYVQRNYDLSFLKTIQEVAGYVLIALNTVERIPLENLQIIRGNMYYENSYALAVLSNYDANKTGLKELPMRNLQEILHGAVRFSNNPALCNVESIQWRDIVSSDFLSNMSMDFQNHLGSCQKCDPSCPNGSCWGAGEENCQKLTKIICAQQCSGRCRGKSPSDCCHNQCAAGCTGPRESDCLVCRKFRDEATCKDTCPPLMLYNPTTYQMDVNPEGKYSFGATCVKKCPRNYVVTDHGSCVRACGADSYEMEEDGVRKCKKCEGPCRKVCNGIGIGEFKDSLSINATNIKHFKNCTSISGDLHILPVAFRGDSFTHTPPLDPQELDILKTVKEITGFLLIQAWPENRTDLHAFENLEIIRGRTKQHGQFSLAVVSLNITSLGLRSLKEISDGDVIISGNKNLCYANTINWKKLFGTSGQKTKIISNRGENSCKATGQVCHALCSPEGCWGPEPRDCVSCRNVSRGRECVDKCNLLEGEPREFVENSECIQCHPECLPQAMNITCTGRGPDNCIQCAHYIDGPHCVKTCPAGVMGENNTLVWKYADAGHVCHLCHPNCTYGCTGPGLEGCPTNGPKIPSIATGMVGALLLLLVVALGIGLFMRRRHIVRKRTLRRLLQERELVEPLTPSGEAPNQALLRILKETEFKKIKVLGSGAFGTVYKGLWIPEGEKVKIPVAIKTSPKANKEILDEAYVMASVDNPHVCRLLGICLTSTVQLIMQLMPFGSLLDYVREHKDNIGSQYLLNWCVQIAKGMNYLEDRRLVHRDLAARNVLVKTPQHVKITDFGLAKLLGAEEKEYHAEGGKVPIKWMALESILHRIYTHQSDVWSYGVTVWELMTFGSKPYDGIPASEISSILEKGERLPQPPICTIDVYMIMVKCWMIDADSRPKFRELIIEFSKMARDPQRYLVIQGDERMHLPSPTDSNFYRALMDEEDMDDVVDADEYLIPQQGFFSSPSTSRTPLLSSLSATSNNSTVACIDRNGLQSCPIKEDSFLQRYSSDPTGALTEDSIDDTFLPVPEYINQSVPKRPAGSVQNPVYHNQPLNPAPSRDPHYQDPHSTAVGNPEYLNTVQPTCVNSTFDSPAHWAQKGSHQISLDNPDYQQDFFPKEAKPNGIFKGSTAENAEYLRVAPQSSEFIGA
Give the value in nM but do not write nM after it.

# input compound: CN(C)S(=O)(=O)n1cc(-c2nccc(Nc3cc(N[C@H]4CC[C@@](C)(O)CC4)c(-c4cc(C(F)(F)F)n(C)n4)cn3)n2)cn1 [Example 330] ; wanted: its IC50
2.6

Entry O=S(=O)(C1CC1)n1cc(-c2nccc(Nc3cc(NC[C@H]4C[C@@H](O)C4)c(-c4ccn(C(F)F)n4)cn3)n2)cn1 [Example 35] please
0.4

Again, but for O=S(=O)(C1CC1)n1cc(-c2nccc(Nc3cc(C#Cc4cnn(C5CC5)c4)c(-c4cnn(C5CC5)c4)cn3)n2)cn1 [Example 5]
10.6

Next compound up: COCn1ccc(-c2cnc(Nc3ccnc(-c4cnn(S(=O)(=O)C5CC5)c4)n3)cc2N[C@H]2CC[C@@](C)(O)CC2)n1 [Example 294]
0.4

Also check COc1ccc(-c2nccc(Nc3cc(N[C@H]4CC[C@@](C)(O)CC4)c(-c4ccn(C(F)F)n4)cn3)n2)cn1 [Example 165]
3

Quick one: CC(Nc1cc(Nc2ccnc(-c3cnn(S(=O)(=O)C4CC4)c3)n2)ncc1-c1ccn(C(F)F)n1)C(F)F (stereo not drawn) [Example 213]
3.4
